Experiment description: Cell Viability - LYMP2-021 (AID 974);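 also: compound exposure lasts 24 hours at 37 °C; nearly all actives have a fitted effect of over 55% in size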
Condition parameters: LYMP2-021 lymphoblastoid cells viability; series mostly up to 92.2 µM
Inconclusive results are not listed. Active and inactive are the calls of the source. Calls follow the shape of the dose curve; as a rule, active = well fitted cell-killing curve with a large enough effect; inconclusive = small, poorly fitted or top-dose-only effect; inactive = flat fitted curve, though single readings scatter.
Entry note: the call must match one of Yes = active, No = inactive

q: // param item: `O=Nc1ccc(Nc2ccccc2)cc1` ; yields the recorded call
a: Yes

q: Any idea what this test logged for `C[C@@H]1CC[C@@]2(OC1)O[C@H]1[C@@H](O)[C@H]3[C@@H]4CC[C@H]5C[C@@H](O[C@@H]6O[C@H](CO)[C@H](O[C@@H]7O[C@H](CO)[C@@H](O)[C@H](O[C@@H]8OC[C@@H](O)[C@H](O)[C@H]8O)[C@H]7O[C@@H]7O[C@H](CO)[C@@H](O)[C@H](O[C@@H]8O[C@H](CO)[C@@H](O)[C@H](O)[C@H]8O)[C@H]7O)[C@H](O)[C@H]6O)[C@H](O)C[C@]5(C)[C@H]4CC[C@]3(C)[C@H]1[C@@H]2C` ?
a: Yes

q: For `Clc1ccc(C(c2ccc(Cl)cc2)C(Cl)Cl)cc1` , which call appears in the assay record?
a: No

Ref: PubChem BioAssay (NCATS)
